B1: PPEF2 (parent)
chain: AFKAAALIQRWYRRYVARLEMRRR

Variants of: B1
ASSAY TEXT: protein stability index of a GFP-peptide fusion (GPS, HEK-293T) (PSI 1-6); higher = more stable;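 further: lentivirally expressed fusions sorted by FACS into six bins by GFP to DsRed ratio, PSI derived from sequencing read proportions per bin multiplied by bin number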
TEST PARAMETERS: c terminus: a fixed tail appended
RECORDED ENDPOINT: protein stability index
Reply: number alone, nothing else.

Answered examples (10):
>  <MUTATION ID>
A6F

>  <protein stability index>
2.77

$$$$
>  <MUTATION ID>
A1V

>  <protein stability index>
3.96

$$$$
>  <MUTATION ID>
Y15C

>  <protein stability index>
4.6

$$$$
>  <MUTATION ID>
E20H

>  <protein stability index>
3.46

$$$$
>  <MUTATION ID>
R13F

>  <protein stability index>
2.06

$$$$
>  <MUTATION ID>
A5I

>  <protein stability index>
2.4

$$$$
>  <MUTATION ID>
V16N

>  <protein stability index>
3.02

$$$$
>  <MUTATION ID>
Y12G

>  <protein stability index>
1.49

$$$$
>  <MUTATION ID>
A1M

>  <protein stability index>
3.01

$$$$
>  <MUTATION ID>
V16H

>  <protein stability index>
3.66

$$$$

For Y12A , what is its reported protein stability index?
2.35
